B1: Azoarcus group I ribozyme (parent)
chain: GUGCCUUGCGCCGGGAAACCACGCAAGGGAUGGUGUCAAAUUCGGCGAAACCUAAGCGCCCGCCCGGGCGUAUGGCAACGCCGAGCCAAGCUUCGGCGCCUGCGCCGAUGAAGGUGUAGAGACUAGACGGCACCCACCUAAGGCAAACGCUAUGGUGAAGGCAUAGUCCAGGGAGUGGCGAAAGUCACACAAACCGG

Variants of: B1
Experiment: reverse-splicing fitness (ratio to wild type); higher = more active; in vitro selection; Mg2+ level not given
Classes based on reverse-splicing fitness: bottom = under 0.007, middle = from 0.007 up to 0.02, top = 0.02 and over

In [3]: df
Out[3]:
                                   mutant_id  classification
 0                    C82U A120G C150U U176C          middle
 1                          C82G A120C U176G          middle
 2                    C82U A111C A145C U176A             top
 3             A111C A120U A145G C169U U176A          middle
 4             A111U A145U C150G C169G U176C          bottom
 5        C82G A111G A145G C150U C169G U176A          middle
 6             A111C A145C C150U C169U U176A          middle
 7        C82A A111G A120U C150G C169A U176G          bottom
 8                         A111G C150A C169U             top
 9              C82A A120C A145U C150G C169U          middle
10        C82A A111U A120G A145C C150G C169G          bottom
11                    C82G A111C A120U A145C             top
12                          C82U A145C C150A             top
13  C82G A111C A120C A145C C150G C169A U176G          middle
14  C82G A111C A120G A145C C150A C169A U176G          bottom
15        C82U A120U A145U C150A C169A U176G          bottom
16                         A120U C169A U176C          bottom
17       A111U A120U A145C C150G C169U U176C          bottom
18              C82A A111C A145G C150G U176C          middle
19              C82A A120C A145G C150A U176A          middle
20              C82U A145U C150U C169G U176G          bottom
21                   A145G C150A C169U U176G          middle
22        C82A A120G A145C C150A C169U U176G          bottom
23        C82A A111C A120G C150U C169G U176A          middle
24  C82A A111G A120G A145G C150A C169A U176C             top
25              C82U A120G C150U C169G U176C          middle
26                          C82A A145C U176A             top
27                   A111G A120G A145G C150A             top
28  C82G A111G A120U A145G C150U C169U U176G          bottom
29                    C82A A111U A120C A145C             top
30             A111C A120C A145G C150A U176C             top
31                          C82G A120G A145U             top
32        C82G A111C A145U C150G C169U U176C          middle
33       A111G A120C A145C C150A C169U U176G          bottom
34        C82A A111C A145C C150A C169A U176G          middle
35              C82U A120U A145G C150G C169G          bottom
36        C82G A120G A145C C150G C169A U176A          middle
37        C82A A111G A120C A145U C169A U176G          bottom
38  C82G A111U A120C A145C C150U C169U U176G          bottom
39              C82G A120G A145G C150G C169U          middle
40  C82G A111G A120C A145C C150A C169G U176C          middle
41                          C82G A111G C150G             top
